Each entry below carries its recorded melting point.
parameter measured: melting point

>>> observed_measurement("CNCCC(Oc1cccc2c1OCO2)c1cccs1.O=C(O)C(=O)O (centres unmarked) [Compound I2]")
"120 to 123 °C"
>>> observed_measurement("O=C(O)C(=O)O.c1csc(C(CCN2CCCCC2)Oc2cccc3c2OCO3)c1 (centres unmarked)")
"118 to 120 °C"
>>> observed_measurement("O=C(O)C(=O)O.c1csc(C(CCN2CCCC2)Oc2cccc3c2OCO3)c1 (centres unmarked)")
"105 to 108 °C"
>>> observed_measurement("CN(C)CCC(Oc1cccc2c1OCCO2)c1cccs1.O=C(O)C(=O)O (centres unmarked)")
"89 to 92 °C"
>>> observed_measurement("CN(C)CCC(Oc1cccc2c1OCO2)c1ccco1.O=C(O)C(=O)O (centres unmarked) [Compound I6]")
"97 to 101 °C"
